molecular target: human GLP-1 receptor (human, UniProt P43220 24-463); assay: cell-based or functional assay
Starred links: 1 amine or outer side, 2 acyl side, 3 side chain; linkers in the order of their positions; H or OH if unused. Non-standard residues stand in square brackets, D forms with d. Groups on a side chain read outwards from the residue. No end group written: not given here. *: point of attachment. C18 diacid = O=C(O)CCCCCCCCCCCCCCCCC(=O)*; γGlu = O=C(O)[C@H](CCC(=O)[*:2])N[*:1]; εLys = N[C@@H](CCCCN[*:1])C(=O)[*:2]; Aib = CC(C)(N)C(=O)O
value_kind: EC50 CreLuc hGLP1R 100% hP (nM)
Number in nM, nothing else.

Previously resolved entries follow.
- YXEGTFTSDYSIXLEKQAQXAFVEWLIKGGPSSGESLRHYYNWLTRQRY (Aib at 2, 13, 20; K28 side chain: C20DA-gGlu-gGlu-gGlu-gGlu-gGlu-gGlu-eLys; C-terminal NH2) [Compound 127]: 1.6
- Y[Aib]EGTFTSDYSI[Aib]LEKQAQ[Aib]AFVEWLIK([εLys-γGlu-γGlu-γGlu-γGlu-γGlu-C18 diacid])GGPESGASLRHYYNWLTRQRY-NH2 [Compound 152]: 4.24
- YXEGTFTSDYSIXLEKQAQXAFVQWLIKGGPSSGASLRHYYNWLTRQRY (Aib at 2, 13, 20; K28 side chain: C20DA-gGlu-gGlu-gGlu-gGlu-gGlu-OEG-OEG; C-terminal NH2) [Compound 112]: 1.7

Quick one: give measured EC50 CreLuc hGLP1R 100% hP for YXEGTFTSDYSIXLEKQAQXAFVEWLIKGGPSSGASXRHYYNWLTRQRY (Aib at 2, 13, 20; Tle at 37; K28 side chain: C20DA-gGlu-gGlu-gGlu-gGlu-gGlu-gGlu-eLys; C-terminal NH2) [Compound 103]
3.19

// Input: YXEGTFTSDYSIXLEKQAQXAFVEWLIKGGPSSGVSLRHYYNWLTRQRY (Aib at 2, 13, 20; K28 side chain: C20DA-gGlu-gGlu-gGlu-gGlu-gGlu-gGlu-eLys; C-terminal NH2) [Compound 96] . Output its EC50 CreLuc hGLP1R 100% hP only.
2.12

Quick one: give measured EC50 CreLuc hGLP1R 100% hP for YXEGTFTSDYSIXLEKQAQXAFVEWLIKGGPSSGATLRHYYNWLTRQRY (Aib at 2, 13, 20; K28 side chain: C20DA-gGlu-gGlu-gGlu-gGlu-gGlu-gGlu-eLys; C-terminal NH2) [Compound 91]
4.16

Read off the recorded EC50 CreLuc hGLP1R 100% hP for YXEGTFTSDYSIXLEKQAQXAFIEWLIKGGPSSGASLRHYYNWLTRQRY (Aib at 2, 13, 20; K28 side chain: C20DA-gGlu-gGlu-gGlu-Glu-gGlu-gGlu-eLys; C-terminal NH2) [Compound 130]
1.18

Note down EC50 CreLuc hGLP1R 100% hP recorded for YXEGTFTSDYSIXLEGQAQXAFVEWLIKGGPSSGASLRHYYNWLTRQRY (Aib at 2, 13, 20; K28 side chain: C20DA-gGlu-gGlu-gGlu-gGlu-gGlu-gGlu-eLys; C-terminal NH2) [Compound 99]
6.72
